Origin of measurements: paper PMC6571863

assaySystem: α-Glucosidase enzyme (from Saccharomyces cerevisiae)
protocolSummary: α-glucosidase inhibitory assay (p-NPG substrate, spectrophotometric)
setupConditions: α-glucosidase, p-NPG substrate; mean SD (n = 3)
Let's look at some molecules and their measured IC50.
Answer format: value, then unit.

A selection of reference data follows.
- molecule: "CC(=O)O[C@H]1CC[C@@]2(C)C(CC[C@]3(C)C2CC[C@@H]2C4[C@H](C)C(C)=CC(=O)[C@]4(C)CC[C@]23C)C1(C)C (some centres unmarked)"
  IC50: "54.2 µM"
- molecule: "CC1=CC(=O)C2(C)CCC3(C)C(CCC4C5(C)CCC(O)C(C)(C)C5CCC43C)C2C1C (stereo not drawn) [Compound 7, 3β-hydroxy-20-taraxasten-22-one]"
  IC50: "22.7 µM"
- molecule: "COC1C=C(C)C(C)C2C3CCC4C5(C)CCC(O)C(C)(C)C5CCC4(C)C3(C)CCC12C (stereo not drawn) [Compound 2, 3β-hydroxy-22α-methoxy-20-taraxastene]"
  IC50: "27 µM"
- molecule: "CC1=CC(=O)[C@]2(C)CC[C@]3(C)[C@H](CCC4[C@@]5(C)CCC(=O)C(C)(C)C5CC[C@]43C)C2[C@@H]1C (some centres unmarked)"
  IC50: "68.9 µM"
- molecule: "CC1C(COO)=CCC2(C)CCC3(C)C(CCC4C5(C)CCC(O)C(C)(C)C5CCC43C)C12 (stereo not drawn) [Compound 1, 3β-hydroxy-30-hydroperoxy-20-taraxastene]"
  IC50: "18.3 µM"
- molecule: "C[C@@H]1C=C[C@H](O)[C@]2(C)CC[C@]3(C)[C@H](CCC4[C@@]5(C)CC[C@H](O)C(C)(C)C5CC[C@]43C)C12 (stereo partly drawn) [Compound 3, 30-nor-3β,22α-dihydroxy-20-taraxastene]"
  IC50: "44.6 µM"
- molecule: "CC1=CC(O)C2(C)CCC3(C)C(CCC4C5(C)CCC(O)C(C)(C)C5CCC43C)C2C1C (stereo not drawn) [Compound 4, 3β,22α-dihydroxy-20-taraxastene]"
  IC50: "17.5 µM"

Next item in the queue.
Challenge: Data request, read-out IC50, for C[C@@H]1C=CC[C@]2(C)CC[C@]3(C)[C@H](CCC4[C@@]5(C)CC[C@H](O)C(C)(C)C5CC[C@]43C)C12 (stereo partly drawn) [Compound 8, 30-nor-3β-hydroxy-20-taraxastene]
Response given: 80.1 µM

* * *

Let's look at some compounds and their measured Inhibition (%).
System: α-Glucosidase enzyme (from Saccharomyces cerevisiae)
protocolSummary: α-glucosidase inhibitory assay (p-NPG substrate, spectrophotometric)
Type: biochemical
setupConditions: tested concentration of all samples 100 μM; mean SD (n = 3)
Your answer should be a plain number; it is taken to be in %.

A selection of reference data follows.
- compound: "CC1=CC(=O)C2(C)CCC3(C)C(CCC4C5(C)CCC(O)C(C)(C)C5CCC43C)C2C1C (stereo not drawn) [Compound 7, 3β-hydroxy-20-taraxasten-22-one]"
  assaySystem: "α-Glucosidase enzyme (from Saccharomyces cerevisiae)"
  Inhibition (%): 95.59
- compound: "C[C@H]1O[C@H](O[C@H]2[C@H](O)[C@@H](O)[C@@H](O[C@H]3[C@H](O)[C@@H](O)C(O)O[C@@H]3CO)O[C@@H]2CO)[C@H](O)[C@@H](O)[C@@H]1N[C@H]1C=C(CO)[C@@H](O)[C@H](O)[C@H]1O (stereo partly drawn) [Acarbose, acarbose, reference compound]"
  assaySystem: "α-Glucosidase enzyme (from Saccharomyces cerevisiae)"
  Inhibition (%): 78.35
- compound: "CC1C(COO)=CCC2(C)CCC3(C)C(CCC4C5(C)CCC(O)C(C)(C)C5CCC43C)C12 (stereo not drawn) [Compound 1, 3β-hydroxy-30-hydroperoxy-20-taraxastene]"
  assaySystem: "α-Glucosidase enzyme (from Saccharomyces cerevisiae)"
  Inhibition (%): 99.46
- compound: "C[C@@H]1C=C[C@H](O)[C@]2(C)CC[C@]3(C)[C@H](CCC4[C@@]5(C)CC[C@H](O)C(C)(C)C5CC[C@]43C)C12 (stereo partly drawn) [Compound 3, 30-nor-3β,22α-dihydroxy-20-taraxastene]"
  assaySystem: "α-Glucosidase enzyme (from Saccharomyces cerevisiae)"
  Inhibition (%): 70.34
- compound: "COC1C=C(C)C(C)C2C3CCC4C5(C)CCC(O)C(C)(C)C5CCC4(C)C3(C)CCC12C (stereo not drawn) [Compound 2, 3β-hydroxy-22α-methoxy-20-taraxastene]"
  assaySystem: "α-Glucosidase enzyme (from Saccharomyces cerevisiae)"
  Inhibition (%): 93.29
- compound: "CC1=CC(O)C2(C)CCC3(C)C(CCC4C5(C)CCC(O)C(C)(C)C5CCC43C)C2C1C (stereo not drawn) [Compound 4, 3β,22α-dihydroxy-20-taraxastene]"
  assaySystem: "α-Glucosidase enzyme (from Saccharomyces cerevisiae)"
  Inhibition (%): 94.95
- compound: "CC1=CC(=O)[C@]2(C)CC[C@]3(C)[C@H](CCC4[C@@]5(C)CCC(=O)C(C)(C)C5CC[C@]43C)C2[C@@H]1C (stereo partly drawn)"
  assaySystem: "α-Glucosidase enzyme (from Saccharomyces cerevisiae)"
  Inhibition (%): 60.78
- compound: "CC(=O)O[C@H]1CC[C@@]2(C)C(CC[C@]3(C)C2CC[C@@H]2C4[C@H](C)C(C)=CC(=O)[C@]4(C)CC[C@]23C)C1(C)C (stereo partly drawn)"
  assaySystem: "α-Glucosidase enzyme (from Saccharomyces cerevisiae)"
  Inhibition (%): 63.06

Next item in the queue.
Challenge: Data request, read-out Inhibition (%), for C[C@@H]1C=CC[C@]2(C)CC[C@]3(C)[C@H](CCC4[C@@]5(C)CC[C@H](O)C(C)(C)C5CC[C@]43C)C12 (stereo partly drawn) [Compound 8, 30-nor-3β-hydroxy-20-taraxastene]
Response given: 59.19
